- protocol-notes: Stability of the compound in aqueous solution (JP1) assessed as residual ratio at pH 1.2 up to 1 week by HPLC analysis relative to initial level
- Format: physicochemical
observable: remaining at 168 h (%)
Quick reminder: number only, in %, skip the unit.

Lab note: measured remaining at 168 h of `CNC(=N)NCCC[C@H](NC(=O)[C@H](CC(C)C)NC(=O)NNC(=O)[C@H](Cc1ccccc1)NC(=O)[C@@H](NC(=O)[C@H](CC(N)=O)NC(=O)[C@@H](Cc1c[nH]c2ccccc12)NC(=O)[C@H](N)Cc1ccc(O)cc1)[C@@H](C)O)C(=O)N[C@@H](Cc1c[nH]c2ccccc12)C(N)=O` was 64.9

Lab note: measured remaining at 168 h of `CNC(=N)NCCC[C@H](NC(=O)[C@H](CC(C)C)NC(=O)NNC(=O)[C@H](Cc1ccccc1)NC(=O)[C@@H](NC(=O)[C@H](CC(N)=O)NC(=O)[C@@H](Cc1ccncc1)NC(=O)[C@@H](Cc1ccc(O)cc1)NC(C)=O)[C@@H](C)O)C(=O)N[C@@H](Cc1c[nH]c2ccccc12)C(N)=O` was 58.3
